# assayed target: human EP2 receptor (Homo sapiens, UniProt P43116)
# Sequence (P43116 whole entry): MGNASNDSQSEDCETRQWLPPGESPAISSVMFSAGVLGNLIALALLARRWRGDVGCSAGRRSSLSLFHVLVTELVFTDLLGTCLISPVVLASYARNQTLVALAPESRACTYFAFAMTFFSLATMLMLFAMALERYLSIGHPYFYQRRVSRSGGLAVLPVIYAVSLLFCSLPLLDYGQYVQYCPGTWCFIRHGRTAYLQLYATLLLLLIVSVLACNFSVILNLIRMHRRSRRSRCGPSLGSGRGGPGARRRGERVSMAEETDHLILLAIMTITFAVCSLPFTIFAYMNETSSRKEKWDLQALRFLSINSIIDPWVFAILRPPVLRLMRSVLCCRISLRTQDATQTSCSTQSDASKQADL
# test method notes: Experiment of measuring EP2 antagonistic activity using cells expressing prostanoid receptor (cAMP)
# run parameters: CHO cells expressing human EP2 receptor; PGE2 10 nmol/L; cAMP quantified after 1 hour at room temperature; read-out: EP2_IC50
assay readout: IC50 (nM)
Dear colleague, please return just the value in nM, with no unit written.

Examples with their reported IC50 follow.
smiles notation | observed result
CC[C@H](C)n1c(CCOCc2ccccc2)ccc1C(=O)Nc1cc([C@H]2C[C@H]2C(=O)O)ccc1C(F)(F)F | 0.4
Cc1cc(OCCc2ccccc2)cc(C)c1C(=O)Nc1cc([C@H]2C[C@@]2(C)C(=O)O)ccc1C(F)(F)F | 27
Cc1cc(OCCc2ccccc2)cc(C)c1C(=O)Nc1cc([C@@H]2C[C@@H]2C(=O)O)ccc1C(F)(F)F | 12

Alright, here's another compound for you.
Name the recorded IC50 for CC[C@H](C)n1c(CCCc2ccccc2)ccc1C(=O)Nc1cc([C@H]2C[C@H]2C(=O)O)ccc1Cl .
0.3

====

# assayed target: human EP2 receptor (Homo sapiens)
# test method notes: Experiment of measuring EP2 antagonistic activity using cells expressing prostanoid receptor (cAMP)
# run parameters: CHO cells expressing human EP2 receptor; PGE2 10 nmol/L; cAMP quantified after 1 hour at room temperature; read-out: EP2_IC50
pIC50 by entry:
pIC50 here: minus log base 10 of the concentration, concentration in moles per litre.

Examples with their reported pIC50 follow.
compound | assayed target | observed result
Cc1cc(OCCc2ccccc2)cc(C)c1C(=S)Nc1cc([C@H]2C[C@H]2C(=O)O)ccc1C(F)(F)F | human EP2 receptor (Homo sapiens) | 7.89
CC[C@H](C)n1c(CCCc2ccccc2)ccc1C(=O)Nc1cc(C)cc([C@@H]2C[C@H]2C(=O)O)c1 (relative stereo) | human EP2 receptor (Homo sapiens) | 7.48
Cc1cc(OCCc2cnn(C)c2)cc(C)c1C(=O)Nc1cc([C@H]2C[C@H]2C(=O)O)ccc1C(F)(F)F | human EP2 receptor (Homo sapiens) | 7.55
CC(C)c1c(OCc2ccccc2)cccc1C(=O)Nc1cc([C@H]2C[C@H]2C(=O)O)ccc1C(F)(F)F | human EP2 receptor (Homo sapiens) | 7.96
Cc1cc(CCCc2ccccc2)cc(C)c1C(=O)Nc1cc([C@H]2C[C@H]2C(=O)O)ccc1C(F)(F)F | human EP2 receptor (Homo sapiens) | 9.00

Reported pIC50 for human EP2 receptor (Homo sapiens), given Cc1cc(OCCc2ccccc2)cc(C)c1C(=O)Nc1cc([C@H]2CC[C@H]2C(=O)O)ccc1C(F)(F)F ?
8.66

Follow-up item: CC[C@H](C)n1c(CCOc2cc(F)nc(Cl)c2)ccc1C(=O)Nc1cc([C@H]2C[C@H]2C(=O)O)ccc1C(F)(F)F
9.52

Follow-up item: Cc1cc(OCCc2ccccc2)cc(C)c1C(=O)Nc1cc(C(C)CC(=O)O)ccc1C(F)(F)F (centres unmarked)
7.70

Follow-up item: Cc1cc(OCCc2ccccc2)cc(C)c1C(=O)Nc1cc(CCC(=O)O)ccc1C(F)(F)F
8.28

Follow-up item: Cc1cc(OCCc2ccccc2)cc(C)c1C(=O)Nc1cc([C@H]2C[C@H]2C(=O)O)ccc1C(F)(F)F (racemic) [Example 11]
8.66

Follow-up item: Cc1cc(Oc2cncc(Cl)n2)cc(C)c1C(=O)Nc1cc([C@H]2C[C@H]2C(=O)O)ccc1C(F)(F)F
8.09
